System: bamyardgrass
test details: Test B flood test barnyardgrass
Type: in vivo, Echinochloa crus-galli
recorded conditions: Rate 250 g/ha; Pre-emergence; flood-test species; scale 0 to 10, 0 is no effect, 10 is complete control
In this section, each of the compounds is paired with its reported Barnyardgrass plant response rating.
parameter measured: Barnyardgrass plant response rating

>>> df
                                    compound                   parameter_measured  reported_measurement
 0  CCCCCC#CCn1c(=O)on(C(=O)N(c2ccc(F)cc2)C(C)C)c1=O  Barnyardgrass plant response rating                     0
 1  Cc1nc(Cl)sc1C(C)n1c(=O)on(C(=O)N(c2ccc(Cl)cc2)C(C)C)c1=O (centres unmarked)  Barnyardgrass plant response rating                     0
 2  C=CCn1c(=O)on(C(=O)N(c2ccc(F)cc2)C(C)C(=O)OCC)c1=O (centres unmarked)  Barnyardgrass plant response rating                     0
 3  Cc1c(-n2c(=O)on(C(=O)N(c3ccc(F)cc3)C(C)C)c2=O)ccc2ccccc12  Barnyardgrass plant response rating                     0
 4  CC(C)N(C(=O)n1oc(=O)n(C(C)CCl)c1=O)c1ccc(F)cc1 (centres unmarked)  Barnyardgrass plant response rating                     0
 5  CC(C)N(C(=O)n1oc(=O)n(C2CC3CCC2C3)c1=O)c1ccc(F)cc1F (centres unmarked)  Barnyardgrass plant response rating                     8
 6  Cc1nsc(Cl)c1Cn1c(=O)on(C(=O)N(c2ccc(F)cc2)C(C)C)c1=O  Barnyardgrass plant response rating                     0
 7  CC(C)N(C(=O)n1oc(=O)n(C2CC2)c1=O)c1ccc(Cl)cc1  Barnyardgrass plant response rating                     0
 8  CC(C)C(C)n1c(=O)on(C(=O)N(c2ccc(F)cc2)C(C)C)c1=O (centres unmarked)  Barnyardgrass plant response rating                     9
 9  CC(C)N(C(=O)n1oc(=O)n(CCC(F)=C(F)F)c1=O)c1ccc(F)cc1  Barnyardgrass plant response rating                     0
10  Cc1nc(C)c(Cn2c(=O)on(C(=O)N(c3ccc(Cl)cc3)C(C)C)c2=O)s1  Barnyardgrass plant response rating                     0

###

compounds and their reported Redroot pigweed plant response rating
System: pigweed
test details: Test B pre/postemergence pigweed
Assay type: in vivo, Amaranthus retroflexus
recorded conditions: Rate 125 g/ha, Postemergence; scale 0 to 10, 0 is no effect, 10 is complete control
parameter measured: Redroot pigweed plant response rating

>>> df
                                   compound  target_under_test                     parameter_measured  reported_measurement
0  COC(=O)C(C)n1c(=O)on(C(=O)N(c2ccc(F)cc2F)C(C)C)c1=O (stereo not shown) [Compound 463]            pigweed  Redroot pigweed plant response rating                     0
1  CC(C)N(C(=O)n1oc(=O)n(CCCl)c1=O)c1ccc(Cl)cc1 [Compound 474]            pigweed  Redroot pigweed plant response rating                     1
2  CC(C)N(C(=O)n1oc(=O)n(CCC[Si](C)(C)C)c1=O)c1ccc(F)cc1 [Compound 461]            pigweed  Redroot pigweed plant response rating                     0
3  COC(OC)C(C)n1c(=O)on(C(=O)N(c2ccc(F)cc2F)C(C)C)c1=O (stereo not shown) [Compound 472]            pigweed  Redroot pigweed plant response rating                     2
